Experimental Protocol: yeast display, Sf9 membrane polyspecificity reagent, FACS + sequencing; frameworks hold sequencing errors
Readout Label: polyreactivity (PSR sort gate)

IN: Please indicate polyreactivity (PSR sort gate) recorded for QVQLVESGGGLVQAGGSLRLSCAASGSIFTFYAMGWYRQAPGKERELVATITISTGSTYYADSVKGRFTISRDNAKNTVYFQMNSLKPEDTAVYYCNAYISRRGKRGYNYWGQGTQVTVSS
OUT: high polyreactivity

IN: // Input: QVQLVDSGAGLVQAGGSLRLSCAASGRISYVYAMGWYRQAPGKDRELVAGITWSDGSTFYADSVKGSFTISRDNAKNTVYLQMNSLKPEDTAVYYCAARFNRKILGRYYFWGQGTQVTVSS . Output its polyreactivity (PSR sort gate) only.
OUT: high polyreactivity
